# System name: S. aureus SPase (Staphylococcus aureus, UniProt P0A070)
# Sequence (P0A070 whole entry): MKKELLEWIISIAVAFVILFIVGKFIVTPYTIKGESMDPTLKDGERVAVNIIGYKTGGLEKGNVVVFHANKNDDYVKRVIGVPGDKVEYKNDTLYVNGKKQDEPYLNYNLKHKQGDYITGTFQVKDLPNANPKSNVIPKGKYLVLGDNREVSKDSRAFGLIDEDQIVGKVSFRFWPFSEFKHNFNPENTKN
# Method description: biochemical
Square brackets hold non-standard residues; d marks the D form. Peptide text beside a SMILES is read from it. * marks the point of attachment. ξ: configuration not given here. boroAla((+)-pinanediol) = C[C@H](N*)B1O[C@@H]2C[C@@H]3C[C@@H](C3(C)C)[C@]2(C)O1; Biphenylcarbonyl(4'-Bu) = CCCCc1ccc(-c2ccc(C(=O)*)cc2)cc1; X1 = C[C@H](N*)B1OC2C[C@@H]3C[C@@H](C3(C)C)[C@]2(C)O1; Benzoyl(4-(4-Cl-Ph)) = O=C(c1ccc(-c2ccc(Cl)cc2)cc1)*; X19 = O=C(CCCCC12CC3CC(CC(C3)C1)C2)*; Myristoyl = CCCCCCCCCCCCCC(=O)*; Thr(3ξ) = CC(O)[C@H](N)C(=O)O; X6 = C[C@@H](N*)C(=O)C(N)=O; Decanoyl = CCCCCCCCCC(=O)*; Dab = NCC[C@H](N)C(=O)O; Abu = CC[C@H](N)C(=O)O; Dap = NC[C@H](N)C(=O)O; Ac3c = NC1(C(=O)O)CC1; βAla = NCCC(=O)O; ξA = CC(N)C(=O)O
Experimental endpoint: pIC50
To interpret pIC50, take it as minus log10 of a concentration measured in moles per litre.

Task: Recorded pIC50 of CCCCc1ccc(-c2ccc(CN3CCC(C(=O)N[C@H](C(=O)N[C@@H](C)C(=O)N[C@@H](CCCCN)C(=O)N[C@@H](C)B4OC5C[C@@H]6C[C@@H](C6(C)C)[C@]5(C)O4)[C@@H](C)O)CC3)cc2)cc1 (some centres unmarked) , please.
Output: 8.01

Task: Returns the measured pIC50 for the input molecule. Input: CCCCc1ccc(-c2ccc(C(=O)NCCC(=O)N[C@@H](CCCCN)C(=O)N[C@H](C(=O)N[C@@H](C)C(=O)N[C@H](C(=O)N[C@@H](C)B3O[C@@H]4C[C@@H]5C[C@@H](C5(C)C)[C@]4(C)O3)C(C)C)[C@@H](C)O)cc2)cc1 [Compound 194] ({Biphenylcarbonyl(4'-Bu)-βAla}-KTAV-{boroAla((+)-pinanediol)})
Output: 8.33

Task: # query: pIC50 of entry CCCCc1ccc(-c2ccc(C(=O)N[C@@H](CCN)C(=O)N[C@@H](CCN)C(=O)N[C@@H](C)C(=O)N[C@@H](CC)C(=O)N[C@@H](C)B3OC4C[C@@H]5C[C@@H](C5(C)C)[C@]4(C)O3)cc2)cc1 (some centres unmarked) [Compound 182] ({Biphenylcarbonyl(4'-Bu)}-[Dab][Dab]A[Abu]-X1)
Output: 5.96

Task: For CCCCc1ccc(-c2ccc(C(=O)N[C@@H](CCCCN)C(=O)NC(C(=O)N[C@@H](C)C(=O)N[C@@H](CCCCN)C(=O)N[C@@H](C)B(O)O)c3ccc(OC)cc3)cc2)cc1 (some centres unmarked) , what is its reported pIC50?
Output: 6.46

Task: GET /values?readout=pIC50&item= C[C@H](NC(=O)[C@H](CCCCN)NC(=O)[C@H](C)NC(=O)[C@@H](NC(=O)[C@H](CN)NC(=O)c1ccc(-c2ccc(Cl)cc2)cc1)[C@@H](C)O)B1OC2C[C@@H]3C[C@@H](C3(C)C)[C@]2(C)O1 (some centres unmarked) [Compound 167] ({Benzoyl(4-(4-Cl-Ph))}-[Dap]TAK-X1)
Output: 6.72

Task: # pIC50 lookup, item CCCCc1ccc(-c2ccc(C(=O)N[C@@H](CCN)C(=O)N[C@@H](CCN)C(=O)N[C@@H](C)C(=O)N[C@@H](CO)C(=O)N[C@@H](C)B3O[C@@H]4C[C@@H]5C[C@@H](C5(C)C)[C@]4(C)O3)cc2)cc1 [Compound 185] ({Biphenylcarbonyl(4'-Bu)}-[Dab][Dab]AS-{boroAla((+)-pinanediol)})
Output: 6.24

Task: Item CCCCc1ccc(-c2ccc(C(=O)N[C@@H](CN)C(=O)N[C@@H](CCC(=O)N[C@H](CC(=O)O)C(=O)O)C(=O)N[C@@H](C)C(=O)N[C@@H](CCCCN)C(=O)N[C@@H](C)B3OC4C[C@@H]5C[C@@H](C5(C)C)[C@]4(C)O3)cc2)cc1 (some centres unmarked) [Compound 259] ({Biphenylcarbonyl(4'-Bu)}-[Dap]E(dD)AK-X1) has what recorded pIC50?
Output: 7.49

Task: Suppose we examine the molecule CCCCc1ccc(-c2ccc(C(=O)N[C@@H](CCCCN)C(=O)N[C@@H](CCCCN)C(=O)N[C@@H](C)C(=O)N[C@@H](CC(C)C)C(=O)N[C@H](C)C(=O)C(N)=O)cc2)cc1 [Compound 254] ({Biphenylcarbonyl(4'-Bu)}-KKAL-X6) ; what pIC50 value has been reported?
Output: 6.18

Task: Looking for the measured pIC50 of CCCCCCCCCC(=O)N[C@@H](CC(C)C)C(=O)N[C@H](C(=O)N1CCC[C@@H]1C(=O)N[C@H](C(=O)N[C@@H](C)C(=O)N[C@@H](Cc1ccc(O)cc1)C(=O)NC(C)C=O)C(C)O)C(C)O (some centres unmarked) [Compound 109] (Decanoyl-L[Thr(3ξ)][dP][Thr(3ξ)]AY[ξA]-aldehyde) , can you help?
Output: 5.31

Task: Sample CCCCc1ccc(-c2ccc(C(=O)N[C@@H](CCCNC(=N)N)C(=O)N[C@H](C(=O)N[C@@H](C)C(=O)N[C@@H](CCCCN)C(=O)N[C@@H](C)B3O[C@@H]4C[C@@H]5C[C@@H](C5(C)C)[C@]4(C)O3)[C@@H](C)O)cc2)cc1 [Compound 174] ({Biphenylcarbonyl(4'-Bu)}-RTAK-{boroAla((+)-pinanediol)}) — what was its pIC50?
Output: 6.89

Task: Data request, read-out pIC50, for CCCCc1ccc(-c2ccc(C(=O)NCCC(=O)N[C@@H](CCCCN)C(=O)N[C@H](C(=O)N[C@@H](C)C(=O)NC3(C(=O)N[C@@H](C)B4OC5C[C@@H]6C[C@@H](C6(C)C)[C@]5(C)O4)CC3)[C@@H](C)O)cc2)cc1 (some centres unmarked) [Compound 219] ({Biphenylcarbonyl(4'-Bu)-βAla}-KTA[Ac3c]-X1)
Output: 7.34

Task: Which pIC50 value is on record for CCCCCCCCCCCCCC(=O)N[C@@H](CC(C)C)C(=O)N[C@H](C(=O)N1CCC[C@@H]1C(=O)N[C@H](C(=O)N[C@@H](C)C(=O)N[C@@H](Cc1ccc(O)cc1)C(=O)NC(C)C(=O)C(=O)NC)C(C)O)C(C)O (mixture of isomers) ?
Output: 5.47

Task: I have this molecule here, C[C@H](NC(=O)[C@H](CCCCN)NC(=O)[C@H](C)NC(=O)[C@@H](NC(=O)[C@H](CCN)NC(=O)CCCCC12CC3CC(CC(C3)C1)C2)[C@@H](C)O)B1OC2C[C@@H]3C[C@@H](C3(C)C)[C@]2(C)O1 (some centres unmarked) [Compound 239] (X19-[Dab]TAK-X1) , and I need its recorded pIC50.
Output: 6.17

Task: Looking for the measured pIC50 of CCCCCCCCCCCCCC(=O)N[C@@H](CC(C)C)C(=O)N[C@H](C(=O)N1CCC[C@@H]1C(=O)N[C@H](C(=O)N[C@@H](C)C(=O)N[C@@H](CC(N)=O)C(=O)NCC=O)C(C)O)C(C)O (some centres unmarked) [Compound 103] (Myristoyl-L[Thr(3ξ)][dP][Thr(3ξ)]ANG-aldehyde) , can you help?
Output: 6.96
